method: Pharmacokinetics of 5-fluoro-orotate in mice
Type: in vivo, Swiss white mice
condition notes: mouse, plasma, ip; single i.p. 5 mg/kg; read-out: peak plasma concentration
recorded endpoint: Cmax

Data request: Name the recorded Cmax of the item O=C(O)c1[nH]c(=O)[nH]c(=O)c1F [5-fluoro-orotate] in your answer.
Data returned: ~30 µM

###

method: Pharmacokinetics of 5-fluoro-orotate in mice
Type: in vivo, Swiss white mice
condition notes: mouse, plasma, ip; single i.p. 0.2, 1, 5 mg/kg, all dosages; read-out: time of peak plasma concentration
Protocol: FIG. 3 illustrates time-dependant changes in plasma 5-fluoroorotate concentration following single intraperitoneal injections of 5-fluoro-orotate at 0.2 mg/kg (.box-solid.), 1 mg/kg (.diamond-solid.), or 5 mg/kg (.tangle-solidup.). Two mice were used at each dosage level. At each time point, duplicate 200 μl samples of blood were drawn and analyzed for 5-fluoro-orotate concentration. […]
recorded endpoint: Tmax

Data request: Name the recorded Tmax of the item O=C(O)c1[nH]c(=O)[nH]c(=O)c1F [5-fluoro-orotate] in your answer.
Data returned: ≤ 20 min
